Recorded values, source patent US20050256132A1.

Tested on: CK
Assay: Creatine kinase assay in ERα infected HAECT-1 cells (Table 2)
Assay type: cell-based, human
Tag: yes if measured CK % Efficacy is not below -10%, no if it is.

Reference set, count: 5
• COc1ccccc1C(c1cccc2ccccc12)C(C#N)(COCc1ccccc1)C(=O)N1CCN(C2CCCCC2)CC1 (stereo not shown) = no
• COc1ccccc1C(c1cccc2ccccc12)C(C#N)(Cc1cccnc1)C(=O)N1CCN(c2ncccn2)CC1 (stereo not shown) = yes
• COC[C@@](C#N)(C(=O)N1CC=C(c2c[nH]c3ccccc23)CC1)[C@@H](c1ccccc1OC)c1cccc2ccccc12 = yes
• COc1ccccc1[C@@H](c1cccc2ccccc12)[C@@](C#N)(COCc1ccccc1)C(=O)N1CCN(c2ncccn2)CC1 = no
• COC(=O)[C@@](C)(C#N)[C@H](c1cnc2ccccc2c1)c1ccccc1OC = no

Prompt line: CK % Efficacy >= -10% for COC[C@](C#N)(C(=O)N1CC=C(c2c[nH]c3ccccc23)CC1)[C@H](c1ccccc1OC)c1cccc2ccccc12 ?
Response line: no

Prompt line: CK % Efficacy >= -10% for COCCOC[C@@](C#N)(C(=O)NC(C)(C)C)[C@@H](c1ccccc1OC)c1cccc2ccccc12 ?
Response line: yes

Prompt line: CK % Efficacy >= -10% for COCC(C#N)(C(=O)N1CCN(c2cnccn2)CC1)C(c1ccccc1OC)c1cccc2ccccc12 (stereo not shown) ?
Response line: yes

Prompt line: CK % Efficacy >= -10% for COCC(C#N)(C(=O)N1CC=C(c2c[nH]c3ccccc23)CC1)C(c1ccccc1OC)c1cccc2ccccc12 (stereo not shown) ?
Response line: yes

Prompt line: CK % Efficacy >= -10% for COCC(C#N)(C(=O)N1CCN(C2CCCCC2)CC1)C(c1ccccc1OC)c1cccc2ccccc12 (stereo not shown) ?
Response line: yes

Prompt line: CK % Efficacy >= -10% for COCCOC[C@@](C#N)(C(=O)OC(C)(C)C)[C@@H](c1ccccc1OC)c1cccc2ccccc12 ?
Response line: no

Prompt line: CK % Efficacy >= -10% for COc1ccccc1[C@@H](c1cccc2ccccc12)[C@@](C#N)(COCc1ccccc1)C(=O)N1CCN(c2cnccn2)CC1 ?
Response line: yes

Prompt line: CK % Efficacy >= -10% for COCC(C#N)(C(=O)OC)C(c1ccccc1OC)c1ccnc2ccccc12 (stereo not shown) ?
Response line: yes

Prompt line: CK % Efficacy >= -10% for COc1ccccc1[C@H](c1cccc2ccccc12)[C@@](C)(C#N)C(=O)N1CCC2(CC1)OCCO2 ?
Response line: yes

Prompt line: CK % Efficacy >= -10% for COc1ccccc1[C@@H](c1cccc2ccccc12)[C@@](C#N)(Cc1cccnc1)C(=O)N1CCN(c2cnccn2)CC1 ?
Response line: no

Prompt line: CK % Efficacy >= -10% for COCCOCC(C#N)(C(=O)N1CC=C(c2c[nH]c3ccccc23)CC1)C(c1ccccc1OC)c1cccc2ccccc12 (stereo not shown) ?
Response line: no

Prompt line: CK % Efficacy >= -10% for COC[C@@](C#N)(C(=O)N1CCN(c2ncccn2)CC1)[C@@H](c1ccccc1OC)c1cccc2ccccc12 ?
Response line: yes

Prompt line: CK % Efficacy >= -10% for COCCOCC(C#N)(C(=O)N1CCN(c2ncccn2)CC1)C(c1ccccc1OC)c1cccc2ccccc12 (stereo not shown) ?
Response line: no

Prompt line: CK % Efficacy >= -10% for COc1ccccc1C(c1cccc2ccccc12)C(C#N)(Cc1cccnc1)C(=O)N1CC=C(c2c[nH]c3ccccc23)CC1 (stereo not shown) ?
Response line: no

---

Outcome Measure: melting point

Guide cases for melting point, answers given:
- CC(C)(C)OC(=O)C(C#N)C(c1cccc2ccccc12)c1cccc2ccccc12 (stereo not drawn): 156 to 157 °C
- COCCN1CCN(C(=O)[C@](C)(C#N)[C@H](c2ccccc2OC)c2cccc3ccccc23)CC1: 144 °C
- COc1ccccc1[C@H](c1cccc2ccccc12)[C@@](C)(C#N)C(=O)N1CCc2[nH]c3ccc(F)cc3c2C1: 172 to 174 °C
- COc1ccccc1[C@H](c1cccc2ccccc12)[C@@](C)(C#N)C(=O)N1CCN(c2cccc(C)c2)CC1: 104 to 105 °C
- COc1ccccc1[C@H](c1cccc2ccccc12)[C@@](C)(C#N)C(=O)N1CCN(c2ccc(C)c(C)c2)CC1: 181 to 183 °C

Working through the 3 compounds below one at a time, give melting point for each.
1. COC(=O)[C@@](C#N)(COCc1ccccc1)[C@H](c1ccccc1OC)c1cccc2ccccc12 (relative stereo)
2. COc1ccccc1[C@H](c1cccc2ccccc12)[C@@](C)(C#N)C(=O)N1CCC2(CC1)C(=O)NCN2c1ccccc1
3. COc1ccccc1[C@H](c1cccc2ccccc12)[C@@](C)(C#N)C(=O)N1CCC(O)(c2ccc(Br)cc2)CC1

Response line:
1. 132.9 to 134.4 °C
2. 176 to 178 °C
3. 206 to 208 °C

Working through the 5 compounds below one at a time, give melting point for each.
1. COc1ccccc1[C@H](c1cccc2ccccc12)[C@@](C)(C#N)C(=O)N1CCN(C2CCCCC2)CC1
2. COc1ccccc1[C@H](c1cccc2ccccc12)[C@@](C)(C#N)C(=O)N1CCC(C(C)=O)(c2ccccc2)CC1
3. COc1ccccc1[C@H](c1cccc2ccccc12)[C@@](C)(C#N)C(=O)N1CCN(c2ccc(Cl)cc2)CC1
4. COc1ccccc1[C@H](c1cccc2ccccc12)[C@@](C)(C#N)C(=O)N1CCC(C2CCCC(C(F)(F)F)C2)CC1 (stereo partly drawn)
5. COc1cc(OC)cc(N2CCN(C(=O)[C@](C)(C#N)[C@H](c3ccccc3OC)c3cccc4ccccc34)CC2)c1

Response line:
["137 to 138 °C", "134 to 135 °C", "178 to 180 °C", "160 to 165 °C", "186 to 188 °C"]

Working through the 2 compounds below one at a time, give melting point for each.
1. COc1ccccc1[C@H](c1cccc2ccccc12)[C@@](C)(C#N)C(=O)N1CCN(CCCN(C)C)CC1
2. COc1ccccc1[C@H](c1cccc2ccccc12)[C@@](C)(C#N)C(=O)N1CCC(N2C(=O)Cc3ccccc32)CC1

Response line:
78 to 80 °C
227 to 230 °C

---

Counter-ions that a name gives are not always drawn.
Outcome Measure: melting point

Guide cases for melting point, answers given:
- COC[C@@](C#N)(C(=O)N1CCN(c2ncccn2)CC1)[C@@H](c1ccccc1OC)c1cccc2ccccc12 [Example 211]: 136 to 137 °C
- COC(=O)[C@@](C#N)(Cc1cccnc1)[C@H](c1ccccc1OC)c1cccc2ccccc12 [Example 156]: 193 °C (dec.)
- CCN(CC)CC[C@](C#N)(C(=O)OC)[C@H](c1ccccc1OC)c1cccc2ccccc12 (relative stereo) (as salt: HCl) [Example 148]: 174 °C (dec.)
- COc1ccccc1[C@H](c1cccc2ccccc12)[C@@](C)(C#N)C(=O)N1CCc2c([nH]c3ccccc23)C1 [Example 190]: 212 to 213 °C
- CCC(=O)C1(c2ccccc2)CCN(C(=O)[C@](C)(C#N)[C@H](c2ccccc2OC)c2cccc3ccccc23)CC1 [Example 194]: 126 to 128 °C
- COc1ccccc1[C@H](c1cccc2ccccc12)[C@@](C)(C#N)C(=O)N1CCN(C(=O)c2ccco2)CC1: 193 °C
- COc1ccccc1[C@H](c1cccc2ccccc12)[C@](C#N)(COCc1ccccc1)C(=O)OC(C)(C)C (relative stereo) [Example 154]: 166 to 170 °C
- COc1ccccc1[C@H](c1cccc2ccccc12)[C@@](C)(C#N)C(=O)N1CCN(CC(=O)N2CCOCC2)CC1: 201 °C
- COc1ccccc1[C@H](c1cccc2ccccc12)[C@@](C)(C#N)C(=O)N1CC=C(c2c[nH]c3ccccc23)CC1 [Example 182]: 229 to 231 °C
- COc1ccccc1C(c1ccnc2ccccc12)C(C)(C#N)C(=O)N1CCC(c2cccc(C(F)(F)F)c2)CC1 (centres unmarked) [Example 161]: 163 to 165 °C

Working through the 2 compounds below one at a time, give melting point for each.
1. COCC(C#N)(C(=O)N1CCN(CCCN(C)C)CC1)C(c1ccccc1OC)c1cccc2ccccc12 (centres unmarked) [Example 204]
2. COc1cccc(N2CCN(C(=O)[C@](C)(C#N)[C@H](c3ccccc3OC)c3cccc4ccccc34)CC2)c1

Response line:
1. 174 to 175 °C
2. 147 to 148 °C

Working through the 2 compounds below one at a time, give melting point for each.
1. COc1ccccc1[C@H](c1cccc2ccccc12)[C@@](C)(C#N)C(=O)N1CC=C(c2ccc(Br)cc2)CC1 [Example 135]
2. COc1ccccc1[C@H](c1cccc2ccccc12)[C@@](C)(C#N)C(=O)N1CCC(O)(c2ccc(Cl)cc2)CC1 [Example 186]

Response line:
136 to 139 °C
202 to 204 °C

---

Exercise: state measured pIC50 for each of the compounds provided.
Tested on: ER/IL-6
Test: Endothelial Cell ER/IL-6 Assay, IL-6 promoter luciferase (Table 2)
Format: cell-based, human
Conditions: Homo sapiens, HAECT1; ERα infected HAECT-1 cells, IL-1β; read-out: IL6 luc IC50
One number for each entry, as −log10 of the molar value.

Guide cases for pIC50, answers given:
• COc1ccccc1C(c1ccnc2ccccc12)C(C#N)(Cc1cccnc1)C(=O)OC(C)(C)C (stereo not shown) = 6.45
• COCC(C#N)(C(=O)N1CCN(CCCN(C)C)CC1)C(c1ccccc1OC)c1cccc2ccccc12 (stereo not shown) = 6.93
• COCCN1CCN(C(=O)C(C#N)(COCc2ccccc2)C(c2ccccc2OC)c2cccc3ccccc23)CC1 (stereo not shown) = 5.40

Kindly review the next compound as well.
Documented pIC50 of COC(=O)[C@@](C#N)(CCN1CCOCC1)[C@H](c1ccccc1OC)c1cccc2ccccc12 (relative stereo) : 7.92
